# Tested on: L1210 leukemia ip in BDF1 mice, survival T/C
# assay name: NCI In Vivo Anticancer Drug Screen. Data for tumor model L1210 Leukemia (intraperitoneal) in B6D2F1 (BDF1) mice
# assay setup: endpoint: mean survival time; dose: 400.0 mg/kg/injection; schedule: Q04DX003 (ip); vehicle: saline; higher = longer survival
Toxic doses and inconclusive results are not listed.
quantity name: T/C

Sample records with T/C:
- CC(=O)c1ccc2c(c1)Cc1ccccc1-2: 91 % of control
- O=C1NC(=O)C(c2ccccc2)(c2ccc(Cl)cc2Cl)N1 (stereo not given): 93 % of control
- Cc1cnc2c(=N)n(C(=O)C(F)(F)F)n(C)c2n1: 95 % of control
- O=C(c1ccccc1)N1CCC(CCO)C(O)C1Cc1c[nH]c2ccccc12 (stereo not given): 92 % of control

# input for lookup
Which T/C is reported for this molecule? CCOC(=O)C(OCc1ccccc1)(C(=O)OCC)C(C)C
108 % of control

----------
# Tested on: L1210 leukemia ip in BDF1 mice, survival T/C
# assay name: NCI In Vivo Anticancer Drug Screen. Data for tumor model L1210 Leukemia (intraperitoneal) in B6D2F1 (BDF1) mice
# assay setup: endpoint: mean survival time; dose: 100.0 mg/kg/injection; schedule: Q04DX002 (ip); vehicle: Klucel (hydroxypropylcellulose) (HPC); higher = longer survival
Inconclusive results and toxic doses are left out.
Catalogue of compounds with associated T/C

Sample records with T/C:
• O=C(Nc1ccccc1Cl)OC/C=C/c1ccccc1 = 88 % of control
• O=C(Nc1ccccc1Cl)NC1CCCCC1 = 95 % of control
• CNC(=O)c1ccc(Cl)c(S(=O)(=O)NC)c1 = 100 % of control
• O=c1[nH]cnc2c1ncn2CCCOc1ccccc1 = 91 % of control

Which T/C is reported for this compound? Cc1cccc(OC(=O)Nc2ccc(Cl)cc2)c1
88 % of control

Please give the result for CCOC(=O)CNc1cccc(F)c1 too.
101 % of control

----------
# Test system: L1210 leukemia ip in BDF1 mice, survival T/C
# assay name: NCI In Vivo Anticancer Drug Screen. Data for tumor model L1210 Leukemia (intraperitoneal) in B6D2F1 (BDF1) mice
# assay setup: endpoint: mean survival time; dose: 50.0 mg/kg/injection; schedule: Q01DX009 (ip); vehicle: Klucel (hydroxypropylcellulose) (HPC); higher = longer survival
# Protocol: The antitumor activity of compounds was measured in mice bearing transplantable tumors. Survival or tumor size were measured and the results are expressed as the measurement made in the treated group (T) divided by the measurement made in the vehicle treated control group (C). The tumor model used in this assay is L1210 Leukemia (intraperitoneal) in B6D2F1 (BDF1) mice
Inconclusive results and toxic doses are left out.
quantity name: T/C

* CC(=O)C1=CN(C(C)(C)C)COC1C (stereo not given) | 104 % of control
* CC(C)(C)c1cc(C#N)cc(C(C)(C)C)c1O | 96 % of control
* COc1ccc(CCCNCCCCCCNCCCc2ccc(OC)cc2)cc1 | 93 % of control
* NC1=NC(=O)C(c2ccccc2)O1 (stereo not given) | 94 % of control
* CC(=O)C1=CN(c2ccccc2)COC1C (stereo not given) | 107 % of control

Which T/C is reported for this compound? O=c1oc(-c2ccccc2)nc2c(Cl)ccc(Cl)c12
105 % of control

Please give the result for CC(C)=CCCNC(=O)NS(=O)(=O)c1ccc(Cl)cc1 too.
101 % of control

Please give the result for c1ccc(Cn2ccnn2)cc1 too.
96 % of control

----------
# System: L1210 leukemia ip in BDF1 mice, survival T/C
# assay name: NCI In Vivo Anticancer Drug Screen. Data for tumor model L1210 Leukemia (intraperitoneal) in B6D2F1 (BDF1) mice
# assay setup: endpoint: mean survival time; dose: 50.0 mg/kg/injection; schedule: Q01DX009 (ip); vehicle: Klucel (hydroxypropylcellulose) (HPC); higher = longer survival
Toxic doses and inconclusive results are not listed.
Catalogue of molecules with associated T/C

* Fc1ccc(P(c2ccc(F)cc2)c2ccc(F)cc2)cc1 | 89 % of control
* Cc1cc2c(C)nc3ccccc3n2c1O | 103 % of control
* CCCCCCCCOC(=O)Nc1ccccc1 | 94 % of control
* CSC(=S)N(C)C | 108 % of control
* O=C1C2C=CC=CC1C=C2 | 89 % of control

Which T/C is reported for this molecule? CSC1=NCCS1
102 % of control

Please give the result for N#CC(C(=O)c1ccccc1)c1cccc2ccccc12 (configuration not stated) too.
101 % of control
